Target: T1, hCMV gH + gL + UL128 + UL130 + UL131A (5-member complex; HEK293T co-transfectant) (hCMV, UniProt P12824 24-743; P16832 31-278; P16837 1-171; P16772 1-214)
T1 construct: whole, on cells; in the functional rows it stands for the complex on virions or transduced cells of the strain or isolate named in the readout; also called gH/gL/UL128-131A complex; pentameric complex
Experiment: cell competition; competitor 6G4-biotin
reported property: Inhibition of binding (%)

binder="8J16 (antibody, V domains shown, human IgG; also called 8J16-biotin) VH: QVQLQESGPGLVKPSETLSLTCSVSGGFTSSYYWSWIRQAPGKGLEWIGYVYYGESTDYNPSLKSRATISIDTSKNQFSLKLSSVTAADTAVYYCAREVDKRGFDYWGQGALVTVSS VL: EIVLTQSPGTLSLSPGERATLSCRASQSVSGGYLAWYQQEPGQAPRLVIYGASSRATGIPDRFSASGSGTDFTLTITRLEPEDFAVYYCQQYGRTPLTFGGGTKVEIK" numeric_result=100
binder="8C15 (antibody, V domains shown, human IgG; also called 8C15-biotin) VH: QVQLQESGPGLVKPSETLSLTCTVSGGSIRSYYWSWIRQPPGKGLEWIGHIYYSGNTNYSPSLQSRVTISLDTPKNQFSLRLSSVTAADTAVYYCARHDVIVVRGVFDVWGQGTVVTVSS VL: QSALTQPASVSGSPGQSITISCTGTSSDIGTYNLVSWYQQHPGKAPKVLIYDGSKRPSGVSSRFSASKSGNTASLTISGLQAEDETDYYCCSYAGTSDFFVVFGGGTKLTVL" numeric_result=100
binder="7I13 (antibody, V domains shown, human IgG; also called 7113) VH: QVQLVESGGGVVQPGRSLRLSCAASGFTFSNYGMHWVRQGPGKGLEWVAVISYDASSKYYTDSVQGRFTISRDNSKNTLFLQMNSLRGEDTAVYYCAKALRYLDWFLSDPFDYWGQGTLVTVSS VL: EIVLTQSPGTLSLSPGERATLSCRASQSVSSDFLAWYQQKPGQAPRLLIYGASSRATGIPDRFSGSGSGTDFTLTISRLEPEDFAVYYCQQYAASPPFGQGTRLEIK" numeric_result=0
binder="2C12 (antibody, V domains shown, human IgG; also called 2C12-biotin) VH: QITLRESGPTLVKPTQTLTLTCTFSGFSLNTNGVGVGWIRQPPGKALEWLALIYWNGNEGYSPSLKSRLTITKDTSKNQVVLTMTNMDPVDTATYYCVHWPQGLTTVTRLAFDIWGQGTMVTVSS VL: QSALTQPRSVSGSPGQSVTISCTGTTSDVGRYNFVSWYQQHPGKAPKLLMYDVSQRPSGVPSRFSGSKSGNTASLTISGLQAEDEAVFYCCSYAGGNFFSYVFGTGTKVTVL" numeric_result=100
binder="4N10 (antibody, V domains shown, human IgG; also called 4N10-biotin) VH: QVQLVQSGAEVKKPGSSVRVSCKASGGTFSSYVIIWVRQAPGQGLEWMGGVIPIFDTVNYAQKFQGRVTITADESTSTAYMELSSLKSEDTAVYYCARGILAYCGGDCYNTPYGMDVWGQGTTVTVSS VL: DIQMTQSPSILSASVGDRVTITCRASQSISSWLAWYQQKPGKAPKLLIYKASSLEIGVPSRISGSGSGTEFTLTISSLQPDDFATYYCQQYNSSWTFGQGTKVEIK" numeric_result=0
binder="9I6 (antibody, V domains shown, human IgG; also called 9I6-biotin; 916) VH: EVQLVQSGAEVKKPGESLKISCRESGDTFPAYWIAWVRQMPGKGLEWMGIIYPIDSETTYSPSFQGQVTISADKSINTAYLQWSSLKASDSAIYYCARGTSTGLREAFHIWGQGTMVTVSS VL: DVVMTQSPLSLAVTLGQPAYISCRSSQSLGYSDGNTYLNWFQQRPGQSPRRLIYEVSNRDSGVPDRFSGSGSGTDFTLKISRVEAEDVGTYYCMQGTHWPPMCSFGQGTKLEIK" numeric_result=100
